Target: huPD-L1 (Homo sapiens, UniProt Q9NZQ7)
Sequence (Q9NZQ7 19-290): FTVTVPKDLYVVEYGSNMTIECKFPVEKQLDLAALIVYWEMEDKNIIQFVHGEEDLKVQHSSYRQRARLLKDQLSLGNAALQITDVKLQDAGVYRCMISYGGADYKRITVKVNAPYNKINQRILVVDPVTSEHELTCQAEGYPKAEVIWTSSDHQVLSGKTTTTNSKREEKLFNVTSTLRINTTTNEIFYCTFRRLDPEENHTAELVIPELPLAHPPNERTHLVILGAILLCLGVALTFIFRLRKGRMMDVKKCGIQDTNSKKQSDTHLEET
Test: Flow binding to CHO cells stably expressing PD-L1
Set-up: huCTLA4 and huPD-L1, full-length mammalian surface expression constructs were generated; expressed in transfected cells; host or cells: CHO cells, lentiviral transduction, sorted to >98% purity
Conditions: Table E25; linker variants; 33.3 nM; CHO cells stably expressing PD-L1
EXPERIMENTAL READOUT: PD-L1 MFI at 33.3 nM
A bare number is all that is needed in reply.

Look at this molecule and give its reported PD-L1 MFI at 33.3 nM. E35D/M47V/N48K/V68M/K89N EAAAK (protein, UniProt P33681 35-288, looked up, variant E35D M47V N48K V68M K89N, EAAAK linker) T-lymphocyte activation …: VIHVTKEVKEVATLSCGHNVSVEELAQTRIYWQKDKKMVLTMMSGDVKIWPEYKNRTIFDITNNLSIMILALRPSDEGTYECVVLKYENDAFKREHLAEVTLSVKADFPTPSISDFEIPTSNIRRIICSTSGGFPEPHLSWLENGEELNAINTTVSQDPETELYAVSSKLDFNMTTNHSFMCLIKYGHLRVNQTFNWNTTKQEHFPDNLLPSWAITLISVNGIFVICCLTYCFAPRCRERRRNERLRRESVRPV 22862
